reported.endpoint: melting point

Examples with answers:
>  <molecule>
COC(=O)c1ccc(C(=O)Nc2cc3c4c(c2)CCCC4(C)CCC3)s1

>  <melting point>
212 °C

$$$$
>  <molecule>
CCn1ncc2c(NCC3CCCCC3)c3cc(OCC4CO4)ccc3nc21 (stereo not drawn)

>  <melting point>
160 to 163 °C

$$$$

Looking for the measured melting point of `O=C1C=Cc2ccc3ncccc3c2C1=O` , can you help?
215 to 216 °C

====

melting point values, listed per item

>  <compound>
COC(=O)C=Cc1ccc(F)cc1

>  <melting point>
43 to 46 °C

$$$$
>  <compound>
CS(=O)(=O)c1ccc(C(=O)N[C@H]2CC[C@H](CCN3CCN(c4nccc5c4OCC5)CC3)CC2)s1

>  <melting point>
212 °C

$$$$
>  <compound>
CC(C)(C)c1cc(C=Cc2n[nH]c(=O)[nH]2)cc(C(C)(C)C)c1O

>  <melting point>
280 to 284 °C

$$$$
>  <compound>
c1ccc2nc3[nH]ncc3cc2c1

>  <melting point>
104 to 106 °C

$$$$
>  <compound>
Cc1nnc2n1-c1ccccc1C(c1ccccc1)=NC2NC(=O)Nc1ccc(Cl)cc1 (stereo unspecified)

>  <melting point>
292 to 294 °C

$$$$
>  <compound>
O=C(NCCCCCCCCNC(=O)c1ccc(OC(F)(F)F)cc1)c1ccc(OC(F)(F)F)cc1

>  <melting point>
164 to 165 °C

$$$$
>  <compound>
O=C(O)c1cccc(Oc2ccc([N+](=O)[O-])cc2Cl)c1

>  <melting point>
172 to 173 °C

$$$$
>  <compound>
O=C(O)C[C@@H](c1cc(F)cc(F)c1)C(F)(F)F

>  <melting point>
73 to 75 °C

$$$$

What measured melting point goes with `CCOC(=O)Cc1nnc(-c2cc3cccc(N(C)S(=O)(=O)c4cccs4)c3[nH]2)s1` ?
201 to 202 °C

# lookup: melting point of `Clc1ccc2nc(Cl)cn2c1`
155 to 156 °C

// lookup melting point for NC(=O)C(CCc1ccccc1)NC(=O)c1ccc2[nH]c(-c3ccccc3)c(-c3ccccc3)c2c1 (stereo unspecified)
120 to 125 °C

// lookup melting point for CS(=O)(=O)Nc1cc(C(O)CNCCCCCCOCCC2CCCCC2)ccc1O (stereo unspecified)
99 to 101 °C

For the compound shown here, `N#CC=C(N)c1ccccc1C(F)(F)F` , give the reported melting point.
101 to 103 °C

====

melting point values for the compounds below.

Consider the following illustrative entries.
>  <compound>
CCN1C(=O)CN(c2ccccc2)C1=S

>  <melting point>
122 °C

$$$$
>  <compound>
Cc1ccccc1C(Oc1cc(OCc2ccc3c(c2)OCO3)ccc1C#N)c1nnn[nH]1 (racemic)

>  <melting point>
106 to 109 °C

$$$$

Name the reported melting point value associated with the compound `CCOC(=O)CNc1c(C)cc(C(O)(C(F)(F)Cl)C(F)(F)Cl)cc1C`
102 to 104 °C

Please report the recorded melting point for `COCc1c(C=O)ncc2c1c1c(OCc3ccccc3)cccc1n2CC(=O)N(C)CCc1ccccc1` .
192 to 197 °C

Fill blank: measured melting point of the compound CC(O)C1CCC2C3CC=C4CC(N)CCC4(C)C3CCC12C (stereo not drawn) is ____.
160 °C

Return reported melting point; argument: `FC(F)(F)c1ccc(-c2cc(Oc3ccc4c(C(F)(F)F)ccnc4c3)ncn2)cc1`
129 to 131 °C

Which measured melting point value corresponds to `CCCCS(=O)(=O)Nc1ccc(I)cc1` ?
80 to 81 °C

Returns the measured melting point for the input compound. Input: CC(C)C(=O)OCC(=O)C12OC(C3CCCCC3)OC1CC1C3CCC4=CC(=O)C=CC4(C)C3C(O)CC12C (stereo not drawn)
210 to 211 °C

What value of melting point has been recorded for this entry: `Cc1cc(Cc2ccc(Cl)cc2)n(O)c(=O)c1`
142 °C

// melting point lookup, key: `CC(=O)CC(=O)C=Cc1cc(O)ccc1Br`
185 to 188 °C

For `CCOC(=O)c1c(O)c2cc(Cl)ccc2n(C)c1=O` , what is its reported melting point?
141 to 143 °C

Item under review: `Clc1ccc(-c2nc(COCc3ccccc3)ns2)nn1` . Reported melting point?
109 to 110 °C

Would you kindly share the measured melting point for `ClCc1cn2cc(Cl)ccc2n1` ?
123 to 124 °C

====

reported.endpoint: melting point

>  <compound>
CCC(CC)c1ccc(Cl)c2nc3n(c12)CCCCN3c1ccc(N(C)C)cc1C

>  <melting point>
174 to 175 °C

$$$$
>  <compound>
CCc1cccc(Cl)c1C(=O)N[C@@H](Cc1ccc(-c2c(C)n(C)c(=O)n(C)c2=O)cc1)C(=O)O

>  <melting point>
187 to 190 °C

$$$$
>  <compound>
CC=CC(=O)OCC(C)(Sc1cc2ccccc2n1C)c1ccccc1 (stereo unspecified)

>  <melting point>
56 to 57 °C

$$$$

What does the data say about its melting point? Entry: CCC1Sc2cc(Br)ccc2NC1=O (stereo unspecified)
100 °C

====

Reported melting point values are given for each entry in this list.

Completed entries (count: 6):
>  <compound>
Cc1c(NC(=O)c2ccc(OC[C@@H]3CCCO3)cc2)ccc2c1cc(CNCC(C)(C)O)n2C

>  <reported.endpoint>
melting point

>  <measurement>
160 to 162 °C

$$$$
>  <compound>
Nc1c(Br)cc2c(c1Br)CCC2

>  <reported.endpoint>
melting point

>  <measurement>
220 to 221 °C

$$$$
>  <compound>
[N-]=[N+]=Nc1ccc(Cl)cc1C(=O)c1ccccc1

>  <reported.endpoint>
melting point

>  <measurement>
81 to 83 °C

$$$$
>  <compound>
CC(C)Oc1cc(COc2cc(CCC(=O)O)n(-c3ccccc3)n2)cc(COc2ncc(C(F)(F)F)cc2Cl)c1

>  <reported.endpoint>
melting point

>  <measurement>
140 to 142 °C

$$$$
>  <compound>
Cc1oncc1-c1cncc(OC2SCC(O)C(O)C2O)c1 (stereo not drawn)

>  <reported.endpoint>
melting point

>  <measurement>
209 °C

$$$$
>  <compound>
Cc1nc2ccccn2c(=O)c1CCN1CCC(C(=O)c2ccccc2)CC1

>  <reported.endpoint>
melting point

>  <measurement>
122 °C

$$$$

Any idea what its melting point is? The compound is `O=C(N[C@@H]1C=CC[C@H]1O)OCC(Cl)(Cl)Cl`
82 to 84 °C

Sample `CCOC(=O)c1cn(Cc2ccc(-c3ccccc3-c3nnnn3C(c3ccccc3)(c3ccccc3)c3ccccc3)cc2)c2sc(CC)cc2c1=O` — what was its melting point?
195 to 198 °C

Entry Cc1nnc(-c2ccc3ncc(-c4ccc(S(C)=O)cc4)n3c2)o1 (stereo not drawn) has what melting point?
190 °C

Given `COc1ccccc1S(=O)(=O)NC(=O)c1ccc(C(=O)O)nc1` , state its recorded melting point.
234 to 236 °C

For OC(CSC(=S)Nc1ccc(Cl)cn1)c1ccccc1 (stereo not drawn) , what is its reported melting point?
116 °C

What melting point value was documented for this compound, `Cc1nc(N2CCN(Cc3ccc(F)cc3)C2=O)sc1C(=O)NCc1cccnc1` ?
177 to 179 °C

Returns the measured melting point for the input compound. Input: `COc1ccc(-c2nc(Sc3ccccc3)n(Cc3ccccc3)c2-c2ccc(OC)cc2)cc1`
113 to 115 °C

====

Reported melting point values follow for various molecules

Known melting point results, listed for orientation:
>  <molecule>
O=C(O)c1ccc(C=Cc2ccc(C(=O)O)cc2)cc1

>  <reported.endpoint>
melting point

>  <measurement>
> 280 °C

$$$$
>  <molecule>
O=C1OCCC12Oc1ccccc1C2=O (stereo not given)

>  <reported.endpoint>
melting point

>  <measurement>
111 to 112 °C

$$$$
>  <molecule>
N#Cc1c(N)ccc2cc(Cl)cnc12

>  <reported.endpoint>
melting point

>  <measurement>
246 °C

$$$$
>  <molecule>
Cc1nnc(NC(C)C)s1

>  <reported.endpoint>
melting point

>  <measurement>
145 °C

$$$$
>  <molecule>
Cc1c(-c2ccc(C(F)(F)F)cc2)n(Cc2ccc(OCCBr)cc2)c2ccc(OCc3ccccc3)cc12

>  <reported.endpoint>
melting point

>  <measurement>
106 to 109 °C

$$$$
>  <molecule>
CC(=O)Nc1ccccc1CC1NC(=O)NC1=O (stereo not given)

>  <reported.endpoint>
melting point

>  <measurement>
200 to 202 °C

$$$$

Reported melting point for `CC[C@@H]1N(c2ccc(C#N)c(C(F)(F)F)c2)C(=O)C[C@]1(C)O` : what is it?
137 to 139 °C

What value of melting point has been recorded for this entry: `Oc1c2c(nn1-c1ccccn1)CCc1ccccc1-2`
145 to 146 °C

Fill blank: measured melting point of the molecule `CN(CCc1ccccc1)C(=O)Cn1cc(C(=O)O)c2cc(OCc3ccccc3)ccc21` is ____.
182 to 185 °C

If you can, please state the reported melting point value of CCn1cc(C(=O)O)c(=O)c2cnc(N3CCN(CC(C)O)CC3)nc21 (stereo not given) .
214 to 216 °C
